# System: SF-268
# EXPERIMENT_SUMMARY: Cytotoxicity assay (cell titer-glo and calcein AM), SF-268
# RECORDED_CONDITIONS: read-out: Cytotoxicity IC50, SF-268, calcein; SF-268; calcein AM readout; % error in parentheses
pIC50: −log10 of the molar value.
MEASURE_NAME: pIC50

- COMPOUND: "COc1cc2c(c(OC)c1OC)-c1ccc(OC)c(=O)cc1[C@@H](NC(=O)CN(OC)[C@@H]1O[C@H](CO)[C@@H](O)[C@H](O)[C@H]1F)CC2 [Col34, 2-fluoro-2-deoxy-D-glucoside]"
  QUAL: "="
  EXPERIMENTAL_RESULT: 6.34
- COMPOUND: "COc1cc2c(c(OC)c1OC)-c1ccc(OC)c(=O)cc1[C@@H](NC(=O)CN(OC)[C@@H]1OC[C@@H](O)[C@H](O)[C@H]1O)CC2 [Col4, D-xyloside]"
  QUAL: "="
  EXPERIMENTAL_RESULT: 5.05
- COMPOUND: "CCCCCCCCCC(=O)N[C@@H]1[C@@H](O)[C@H](N(CC(=O)N[C@H]2CCc3cc(OC)c(OC)c(OC)c3-c3ccc(OC)c(=O)cc32)OC)O[C@H](CO)[C@H]1O [Col60, 3-deoxy-3-N-decanoyl-D-glucosaminoside]"
  QUAL: "="
  EXPERIMENTAL_RESULT: 5.38
- COMPOUND: "COc1cc2c(c(OC)c1OC)-c1ccc(OC)c(=O)cc1[C@@H](NC(=O)CN(OC)[C@@H]1O[C@H](C)[C@@H](O)[C@H](O)[C@H]1O)CC2 [Col2, 6-deoxy-D-glucoside]"
  QUAL: "<"
  EXPERIMENTAL_RESULT: 5.00
- COMPOUND: "COc1cc2c(c(OC)c1OC)-c1ccc(OC)c(=O)cc1[C@@H](NC(=O)CN(OC)[C@@H]1OC[C@@H](O)[C@@H](O)[C@H]1O)CC2 [Col5, D-riboside]"
  QUAL: "="
  EXPERIMENTAL_RESULT: 5.34
- COMPOUND: "COc1cc2c(c(OC)c1OC)-c1ccc(OC)c(=O)cc1C(NC(=O)CN(OC)C1OCC(O)C(O)C1O)CC2 [Col25, L-arabinoside]"
  QUAL: "="
  EXPERIMENTAL_RESULT: 5.35
- COMPOUND: "COc1cc2c(c(OC)c1OC)-c1ccc(OC)c(=O)cc1[C@@H](NC(=O)CN(OC)[C@@H]1O[C@H](CF)[C@@H](O)[C@H](O)[C@H]1O)CC2 [Col54, 6-deoxy-6-fluoro-D-glucoside]"
  QUAL: "<"
  EXPERIMENTAL_RESULT: 5.00
- COMPOUND: "COc1cc2c(c(OC)c1OC)-c1ccc(OC)c(=O)cc1[C@@H](NC(=O)CN(OC)[C@@H]1O[C@H](CO)[C@@H](O)[C@H](F)[C@H]1O)CC2 [Col33, 3-fluoro-3-deoxy-D-glucoside]"
  QUAL: "="
  EXPERIMENTAL_RESULT: 5.63
- COMPOUND: "COc1cc2c(c(OC)c1OC)-c1ccc(OC)c(=O)cc1[C@@H](NC(=O)CN(OC)[C@@H]1O[C@H](CO)[C@@H](O[C@H]3O[C@H](CO)[C@@H](O)[C@H](O)[C@H]3O)[C@H](O)[C@H]1O)CC2 [Col38, D-maltoside]"
  QUAL: "="
  EXPERIMENTAL_RESULT: 6.50
- COMPOUND: "COc1cc2c(c(OC)c1OC)-c1ccc(OC)c(=O)cc1[C@@H](NC(=O)CN(OC)[C@@H]1O[C@H](CBr)[C@H](O)[C@H](O)[C@H]1O)CC2 [Col42, 6-deoxy-6-bromo-D-galactoside]"
  QUAL: "="
  EXPERIMENTAL_RESULT: 5.48
